Tested on: Noggin (protein binding on small-molecule microarray)
Assay: small molecules binding Noggin protein – biochemical, 635/667 nm fluorescence, primary screen (AID 1095);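 further: score merges 667 nm feature fluorescence with signal to noise over triplicate slides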
Details: 635 nm fluorescence, higher = more signal
Readout Type: composite z-score
// no unit, no text: just the number

Consider the worked cases shown below.
Task item: # composite z-score lookup, item CCCCCCCCCCC(O)C1C=CC2C(=O)NC(=O)C2N1Nc1ccc(Cl)cc1Cl (stereo not given)
Reply: -0.729

Task item: # composite z-score lookup, item `C=C(CCCC)/C(=C/C[C@H](OC(=O)c1ccncc1)c1ccc(OCCO)cc1)c1cc(C(=O)OC)ccc1OC`
Reply: -0.395

Task item: # composite z-score lookup, item `CCCCC(=C=CC[C@@H](O)c1cccc(OCCO)c1)C[C@@H](O)c1ccccn1`
Reply: 1.46

Task item: # composite z-score lookup, item O=C1NC(=O)C2C1C=CC(C(O)c1ccc(I)cc1)N2Nc1ccccn1 (stereo not given)
Reply: 0.143

// next entry
Task item: # composite z-score lookup, item `CC(C)[Si](C#CCCCC#N)(Oc1ccccc1Br)C(C)C`
Reply: 0.506
